- System: A549 (lung cancer)
- measurement_context: A549, 24 h, MTS
pIC50: −log10 of the molar value.

>  <compound>
O=[N+]([O-])[O-].O=[N+]([O-])[O-].[Cu+2] [Cu(NO3)2, Copper(II) nitrate]

>  <pIC50>
4.32

$$$$

====

- Test system: HaCaT
- measurement_context: 24 h, MTS

>  <compound>
O=[N+]([O-])[O-].O=[N+]([O-])[O-].[Cu+2] [Cu(NO3)2, Copper(II) nitrate]

>  <experimental_system>
HaCaT

>  <IC50>
55.5 µM

$$$$

FYI, the data here is from paper PMC11820680.
